ASSAY_COMMENT: chemical genetic growth profiling, strain panel (AID 1159580);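 further: tested at 20 µM; growth read once vehicle control cultures reached saturation at 30 °C; lower values mean less growth of the strain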
TEST_CONDITIONS: S. cerevisiae deletion strains, growth OD, locus YOR080W, strain dia2
Screen size: about 5,500 compounds; about 2,000 (36%) were called active. Not shown: some 18% with an inconclusive outcome. No stated cut-off is given here; in the data, active means normalized growth mostly below about 0.91 (no sharp cut-off); inconclusive means no clear call, values can overlap the other calls; inactive means mostly above about 0.92. Some of the results follow.
Possible outcomes: Y (active), N (inactive)

COMPOUND	CAT
COc1ccc(-c2c(O)c3c(OC)c4c(cc3oc2=O)OC(C)(C)C=C4)cc1	N
O=C(/C=C/c1ccccc1)c1ccc(O[C@@H]2O[C@H](CO)[C@@H](O)[C@H](O)[C@H]2O)cc1O	N
O=C(/C=C/c1ccc(O)cc1)c1ccc(O)cc1O	N
CCCN(CCC)c1c([N+](=O)[O-])cc(C(F)(F)F)cc1[N+](=O)[O-]	N
O=C(Nc1ccc([N+](=O)[O-])cc1Cl)c1cc(Cl)ccc1O	Y
CC(=O)NC1C(O)OC(COS(=O)(=O)O)C(OC2OC(C(=O)O)C(OC3OC(CO)C(OC4OC(C(=O)O)C(O)C(O)C4OS(=O)(=O)O)C(OS(=O)(=O)O)C3NS(=O)(=O)O)C(O)C2OS(=O)(=O)O)C1O (configuration not stated)	N
CC(C)Cn1c(=O)n(C)c(=O)c2[nH]cnc21	N
O=C(/C=C/c1ccc(O)cc1)c1ccccc1O	Y
CC(C)[C@@H]1CC[C@@H](C)C[C@H]1OC(=O)c1ccccc1	N
CC12CCC(OC(=O)c3ccccc3)CC1CCc1ccccc12 (configuration not stated)	N
O=c1c(O)cccc2cc(O)c(O)c(O)c12	Y
CCCCN(CC)c1c([N+](=O)[O-])cc(C(F)(F)F)cc1[N+](=O)[O-]	N
CC(=O)NS(=O)(=O)c1ccc(N)cc1	N
Oc1cc2c(cc1O)C(c1ccccc1)CNCC2 (configuration not stated)	N
O=c1c(O)c(-c2ccccc2)oc2cc(O)ccc12	Y
NS(=O)(=O)c1cc2c(cc1Cl)NCNS2(=O)=O	N
COC(=O)CC1C(C)(C(=O)c2ccoc2)CC2OCC34C(CC(=O)OC)C5(C)CC36OC3(C)OC1(C(OC(C)=O)C6(OC(C)=O)C5OC(=O)C(C)C)C24O3 (configuration not stated)	N
CC1CC(OC(=O)c2ccccc2O)CC(C)(C)C1 (configuration not stated)	N
COc1cc(OC)c2c(OC)c(-c3ccc4c(c3)OCO4)c(=O)oc2c1	N
COc1ccc(CC(=O)c2ccc(O)cc2O)cc1	N
CC(=O)c1c(O)cc(O)cc1O	N
C[C@H]1C(=O)CCC2[C@]3(C)CC[C@@]4(C)C5CC(C)(C)CC[C@]5(C)CC[C@]4(C)C3CC[C@@]21C (some centres not stated)	N
C=C[C@H]1CN2CC[C@H]1C[C@H]2[C@H](O)c1ccnc2ccccc12	N
COC(=O)C[C@H]1C(C)(C)[C@@H](OC(C)=O)[C@@H]2CC3=C4CC(=O)O[C@@H](c5ccoc5)[C@]4(C)CCC3[C@@]1(C)C2=O (some centres not stated)	N
CC1=C(C(=O)O)N2C(=O)[C@@H](NC(=O)[C@@H](N)c3ccc(O)cc3)[C@H]2SC1	N
O=c1c(O)c(-c2ccc(O)cc2)oc2ccccc12	Y
OC[C@H]1O[C@@H](Oc2ccc(O)cc2)[C@H](O)[C@@H](O)[C@@H]1O	N
C=CC[C@@H]1/C=C(\C)C[C@H](C)C[C@H](OC)[C@H]2O[C@@](O)(C(=O)C(=O)N3CCCC[C@H]3C(=O)O[C@H](/C(C)=C/[C@@H]3CC[C@@H](O)[C@H](OC)C3)[C@H](C)[C@@H](O)CC1=O)[C@H](C)C[C@@H]2OC	N
CC12CCC(O)CC1CCc1ccccc12 (configuration not stated)	N
CC(=O)OC1CCC2(O)CC1(C)CCC1C2CC1(C)C (configuration not stated)	N
COc1cc(O)c2c(c1)C(=O)c1cc(C)cc(O)c1C2=O	N
CC(=O)OC1CCC23CC1(C)CCC2C(C)(C)CC3OC(C)=O (configuration not stated)	N
CC(C)CCCC(C)N (configuration not stated)	N
O=c1c(O)c(-c2ccccc2)oc2ccccc12	Y
CC(C)c1cc2c(c(O)c1O)[C@@]1(C(=O)O)CCCC(C)(C)C1CC2 (some centres not stated)	N
C[N+]12CCC(CC1)C(OC(=O)C(O)(c1ccccc1)c1ccccc1)C2 (configuration not stated)	N
O=C1C=CC(=O)c2c(O)c(Cl)c(Cl)c(O)c21	Y
CC(=O)Oc1c(C)c(C)c2c(c1C)CCC(C)(CCCC(C)CCCC(C)CCCC(C)C)O2 (configuration not stated)	N
COc1cc(Cc2cnc(N)nc2N)cc(OC)c1OC	N
CCC1(C2=NCCN2)Cc2ccccc2O1 (configuration not stated)	N
COc1cc(O)ccc1C(C)=O	N
O=C1c2ccccc2C(=O)c2ccccc21	N

---

ASSAY_COMMENT: chemical genetic growth profiling, strain panel (AID 1159580);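 further: tested at 20 µM; growth read once vehicle control cultures reached saturation at 30 °C; lower values mean less growth of the strain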
TEST_CONDITIONS: S. cerevisiae deletion strains, growth OD, locus YBR023C, strain chs3
Hit rate of the full screen: of about 5,500 compounds, about 2,000 (36%) were called active. Inconclusive results (about 18%) are left out. No stated cut-off is given here; in the data, active means normalized growth mostly below about 0.91 (no sharp cut-off); inconclusive means no clear call, values can overlap the other calls; inactive means mostly above about 0.92. The list shows a part of the results.
Labels: active, inactive

> print(dat)
                                   molecule       cat
1  CC(=O)OC1CCC2(O)CC1(C)CCC1C2CC1(C)C (stereo not drawn)  inactive
2         O=c1c(O)c(-c2ccccc2)oc2cccc(O)c12    active
3  CC12CCC(O)CC1CCc1ccccc12 (stereo not drawn)  inactive
4       CCCCCC/C=C\CCCCCCCc1cccc(O)c1C(=O)O  inactive
5  CC1CC(OC(=O)c2ccccc2O)CC(C)(C)C1 (stereo not drawn)  inactive
6  C=C[C@H]1CN2CC[C@H]1C[C@H]2[C@H](O)c1ccnc2ccccc12  inactive
7  CC(=O)O[C@@H]1C2CC[C@@H]3C1(C[C@@H](O)[C@@]1(O)[C@@H](C[C@H](O)C1(C)C)[C@]3(C)O)C[C@@]2(C)O (stereo partly drawn)  inactive
8  CC(C)[C@@H]1CC[C@@H](C)C[C@H]1OC(=O)c1ccccc1  inactive

---

ASSAY_COMMENT: chemical genetic growth profiling, strain panel (AID 1159580);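 further: tested at 20 µM; growth read once vehicle control cultures reached saturation at 30 °C; lower values mean less growth of the strain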
TEST_CONDITIONS: S. cerevisiae deletion strains, growth OD, locus YKL009W, strain mrt4
Hit rate of the full screen: of about 5,500 compounds, about 2,000 (36%) were called active. Roughly 18% stayed inconclusive and do not appear here. Cut-off read from the data, not from the text of the source: active = normalized growth mostly below about 0.91 (no sharp cut-off); inconclusive = no clear call, values can overlap the other calls; inactive = mostly above about 0.92. Some of the results follow.
Labels: active, inactive

> print(dat)
                                   molecule       cat
1  C[N+]1(C)CCCC(OC(=O)C(O)(c2ccccc2)c2ccccc2)C1 (stereo unspecified)  inactive
2   COP(=O)(NC(C)=O)SC (stereo unspecified)  inactive
3                    CNC(=O)Oc1ccccc1OC(C)C  inactive
4       O=c1c(O)c(-c2ccccc2)oc2ccc3occc3c12    active
5  CC(=O)OC[C@@]1(O)C[C@@]23CCC4c5ccoc5CC[C@]4(C)C2CC[C@@H]1C3 (stereo partly specified)    active
6             CC(C)N1C(=O)c2ccccc2NS1(=O)=O  inactive

---

ASSAY_COMMENT: chemical genetic growth profiling, strain panel (AID 1159580);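 further: tested at 20 µM; growth read once vehicle control cultures reached saturation at 30 °C; lower values mean less growth of the strain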
TEST_CONDITIONS: S. cerevisiae deletion strains, growth OD, locus YHR129C, strain ARP1
The campaign covered roughly 5,500 compounds. About 2,000 (36%) were called active. Roughly 18% stayed inconclusive and do not appear here. Cut-off read from the data, not from the text of the source: active = normalized growth mostly below about 0.91 (no sharp cut-off); inconclusive = no clear call, values can overlap the other calls; inactive = mostly above about 0.92. Some of the results follow.
Outcomes: YES = active, NO = inactive

COMPOUND	CAT
Cc1c(NC(C)C)c(=O)n(-c2ccccc2)n1C	NO
CNC(=O)Oc1cccc2c1OC(C)(C)C2	NO
Oc1cccc2cccnc12	YES
O=c1c(O)c(-c2ccccc2)oc2cc(O)ccc12	YES
CNC(C)(C)Cc1ccccc1	NO
O=C(O)c1cc(=O)c2ccccc2[nH]1	NO
CNC(=O)N(C)c1nnc(C(C)(C)C)s1	NO
CON	NO
COc1ccc([C@@H](C)C(=O)c2ccc(O)cc2O)cc1	NO
CN1CCCCC1c1ccc(-c2cccnc2)nc1 (stereo unspecified)	NO
O=C(O)c1cccnc1C(=O)O	NO
CC(C)OC(=O)Nc1cccc(Cl)c1	NO
O[C@H]1[C@H](O)[C@@H](O)C2OC[C@H]1O2	NO
C=C[C@H]1CN2CC[C@H]1C[C@H]2[C@H](O)c1ccnc2ccccc12	NO
COC(=O)C(O)[C@H]1C(C)(C)[C@@H](OC(C)=O)[C@@H]2CC3=C4CC(=O)O[C@@H](c5ccoc5)[C@]4(C)CCC3[C@@]1(C)C2=O (stereo partly specified)	NO
O=C(Nc1ccc([N+](=O)[O-])cc1Cl)c1cc(Cl)ccc1O	NO
O=C(O)CC[N+](=O)[O-]	NO
COc1ccc(CC(=O)c2ccc(O)cc2O)cc1	NO
Cc1ccc(O)c(C(CCN(C(C)C)C(C)C)c2ccccc2)c1 (stereo unspecified)	NO
CN1CCC[C@H]1c1cccnc1	NO
CC(C)c1cc2c(c(O)c1O)[C@@]1(C(=O)O)CCCC(C)(C)C1CC2 (stereo partly specified)	NO
COc1cc(O)c2c(c1)C(=O)c1cc(C)cc(O)c1C2=O	NO
CC(NC(C)(C)C)C(=O)c1cccc(Cl)c1 (stereo unspecified)	NO
C[C@]12[C@H](O)CC3C(CC[C@@H]4C[C@@H](O)CC[C@]34C)[C@@]1(O)CC[C@@H]2C1=CC(=O)OC1 (stereo partly specified)	NO
O=C(N[C@@H](CO)[C@H](O)c1ccc([N+](=O)[O-])cc1)C(Cl)Cl	NO
CCC[C@@H]1C[C@@H](C(=O)N[C@H]([C@H]2O[C@H](SC)[C@H](O)[C@@H](O)[C@H]2O)[C@H](C)O)N(C)C1	NO
Cc1cc(O)c2c(c1)C(=O)c1cc(O)cc(O)c1C2=O	YES
CC(C)=CCC/C(C)=C/CO	NO
C=C(C)C1Cc2c(ccc3c(=O)c4c(oc23)COc2cc(OC)c(OC)cc2-4)O1 (stereo unspecified)	NO
COc1cc(Cc2cnc(N)nc2N)cc(OC)c1OC	NO
ClC1C(Cl)C(Cl)C(Cl)C(Cl)C1Cl (stereo unspecified)	NO
C[N+]1(C)CCCC(OC(=O)C(O)(c2ccccc2)c2ccccc2)C1 (stereo unspecified)	NO
C/C(=C\CO)CC[C@H](C)CCC[C@H](C)CCCC(C)C	NO
CCCc1ncc(C[n+]2ccccc2C)c(N)n1	NO
CC(C)C1CCC(C(=O)N[C@@H](Cc2ccccc2)C(=O)O)CC1 (stereo partly specified)	NO
C=C(C)C1Cc2c(ccc(C(=O)O)c2O)O1 (stereo unspecified)	NO
